- System: CXCR4 on cultured U937 and Jurkat cells (human, UniProt P61073 1-352)
- Sequence (P61073 whole entry): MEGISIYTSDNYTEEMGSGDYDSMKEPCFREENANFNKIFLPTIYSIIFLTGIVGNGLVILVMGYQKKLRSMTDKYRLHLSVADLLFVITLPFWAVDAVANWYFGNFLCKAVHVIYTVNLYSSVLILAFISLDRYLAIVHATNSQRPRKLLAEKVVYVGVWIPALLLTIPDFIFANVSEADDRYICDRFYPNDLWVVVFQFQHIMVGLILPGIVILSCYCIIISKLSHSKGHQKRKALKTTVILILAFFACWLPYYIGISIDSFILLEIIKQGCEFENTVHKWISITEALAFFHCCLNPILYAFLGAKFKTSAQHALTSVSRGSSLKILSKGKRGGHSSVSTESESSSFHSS
- Protocol Description: cell-based or functional assay
Square brackets hold non-standard residues; d marks the D form. Ends that are not written are not given here.
Note to self: Percent Inhibition of CXCR4/CXCL12 Induced p-MEK (1 µM Test Article) under 80% means fulfilled, ties and anything higher get not fulfilled.

Here's an entry: LRRYHHTVRSSLRPYTK [SEQ ID NO: 38] . Is its Percent Inhibition of CXCR4/CXCL12 Induced p-MEK (1 µM Test Article) below 80%?
not fulfilled

Here's an entry: MLRRYHHSVRSSLRPYTK [SEQ ID NO: 2] . Is its Percent Inhibition of CXCR4/CXCL12 Induced p-MEK (1 µM Test Article) below 80%?
fulfilled

Here's an entry: LERYNHS[dA]RSSLRPYTK [SEQ ID NO: 43] . Is its Percent Inhibition of CXCR4/CXCL12 Induced p-MEK (1 µM Test Article) below 80%?
fulfilled

Here's an entry: LDRYHHS[dA]RSSLRPYTK [SEQ ID NO: 8] . Is its Percent Inhibition of CXCR4/CXCL12 Induced p-MEK (1 µM Test Article) below 80%?
not fulfilled

Here's an entry: LERFHHS[dA]RSSLRPYTK [SEQ ID NO: 55] . Is its Percent Inhibition of CXCR4/CXCL12 Induced p-MEK (1 µM Test Article) below 80%?
fulfilled

Here's an entry: [dA]RRYHHSVRSSLRPYTK [SEQ ID NO: 33] . Is its Percent Inhibition of CXCR4/CXCL12 Induced p-MEK (1 µM Test Article) below 80%?
fulfilled

Just for reference, patent US20220395553A1 is where these values come from.
